test system: P. vulgatus RND KO; assay: growth AUC normalised to DMSO control (median) (fraction of control); higher = less growth inhibition, active = hit call of the paper; details: 20 µM;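 active = normalised median growth AUC below 0.1 of DMSO control; inactive = AUC 0.1 or higher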;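 further: active when median AUC fell below 0.1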
Structures can show the parent of a compound that is named as a salt.
Classes to choose from: YES (active), NO (inactive)

Example entries and their recorded answers appear below.
[[record]]
molecule = "CN1C(=O)CC(c2ccccc2)C1=O (centres undefined) [Phensuximide]"
assigned_class = "NO"

[[record]]
molecule = "CN1CCCN=C1/C=C/c1cccs1 [Pyrantel tartrate]"
assigned_class = "NO"


Q) Per the records of this test, what outcome belongs to O=C1NCC2(CCN(CCc3ccccc3)CC2)O1 [Fenspiride hydrochloride] ?
A) NO

Q) Per the records of this test, what outcome belongs to CC(C)COCC(CN(Cc1ccccc1)c1ccccc1)N1CCCC1 (centres undefined) [Bepridil hydrochloride] ?
A) NO

Q) Per the records of this test, what outcome belongs to CC(=O)OC[C@H]1O[C@@H](n2ncc(=O)[nH]c2=O)[C@H](OC(C)=O)[C@@H]1OC(C)=O [Azaribine] ?
A) NO
